# test-target: Muscarinic acetylcholine receptor M2 (Homo sapiens)
# Sequence (P08172 whole entry): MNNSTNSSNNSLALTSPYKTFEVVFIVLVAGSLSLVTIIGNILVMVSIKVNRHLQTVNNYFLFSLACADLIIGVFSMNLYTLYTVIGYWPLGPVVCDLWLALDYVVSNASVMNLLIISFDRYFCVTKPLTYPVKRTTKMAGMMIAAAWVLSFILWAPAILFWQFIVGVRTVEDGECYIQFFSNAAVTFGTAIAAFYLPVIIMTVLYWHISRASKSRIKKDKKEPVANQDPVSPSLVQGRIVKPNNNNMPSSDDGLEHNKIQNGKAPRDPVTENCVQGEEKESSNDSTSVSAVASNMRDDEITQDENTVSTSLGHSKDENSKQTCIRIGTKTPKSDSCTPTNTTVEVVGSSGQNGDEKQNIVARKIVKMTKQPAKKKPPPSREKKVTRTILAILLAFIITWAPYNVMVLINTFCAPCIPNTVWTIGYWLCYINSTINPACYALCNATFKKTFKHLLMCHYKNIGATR
# test-method-notes: Antagonist activity at cloned muscarinic M2 receptor expressed in CHO cells by measuring calcium mobilization
Consider the following partition of reported IC50 into named classes: lowest (below 50 nM), middle (50 nM to below 700 nM), highest (700 nM or more)

Query: # classify by IC50 band: "C[N+]1(C)[C@@H]2CC[C@H]1C[C@H](OC(=O)N(Cc1ccccc1Br)c1ccccc1)C2"
Reply: middle

Query: GET /class?item= "CN1[C@@H]2CC[C@H]1C[C@H](OC(=O)N(Cc1ccccc1)c1cccs1)C2"
Reply: lowest

Query: Form field 'band' for "Cc1ccsc1CN(C(=O)O[C@H]1C[C@H]2CC[C@@H](C1)N2C)c1ccccc1"
Reply: middle

Query: Band of "C[N+]1(C)[C@@H]2CC[C@H]1C[C@H](OC(=O)N(Cc1cccc(Br)c1)c1ccccc1)C2" ?
Reply: middle

Query: Which IC50 category applies to "C[N+]1(C)[C@@H]2CC[C@H]1C[C@@H](OC(=O)N(Cc1ccsc1)c1ccsc1)C2.[Br-]" here?
Reply: lowest

Query: Given "CN1[C@@H]2CC[C@H]1C[C@@H](OC(=O)N(Cc1ccc(C#N)cc1)c1ccsc1)C2" , name the class its IC50 places it in.
Reply: middle

Query: Form field 'band' for "C[N+]1(C)[C@@H]2CC[C@H]1C[C@H](OC(=O)N(Cc1ccccc1)c1ccccc1)C2.[Br-]"
Reply: lowest

Query: Determine which band this compound sits in: "CN1[C@@H]2CC[C@H]1C[C@H](OC(=O)N(Cc1ccccc1)c1ccccc1)C2"
Reply: middle

Query: Sort "CN1[C@@H]2CC[C@H]1C[C@H](OC(=O)N(Cc1ccsc1)c1ccsc1)C2" into one of the categories.
Reply: lowest

Query: Kindly state the category for this compound: "C[N+]1(C)[C@@H]2CC[C@H]1C[C@H](OC(=O)N(Cc1cccs1)c1ccccc1)C2.[Br-]"
Reply: lowest

Query: Any idea which band "COc1cccc(CN(C(=O)O[C@@H]2C[C@H]3CC[C@@H](C2)N3C)c2ccccc2)c1" is in?
Reply: highest

Query: Band of "CN1[C@@H]2CC[C@H]1C[C@@H](OC(=O)N(Cc1ccsc1)c1ccccc1)C2" ?
Reply: middle

Query: Please indicate the class for "CN1[C@@H]2CC[C@H]1C[C@@H](OC(=O)N(Cc1ccccc1Br)c1ccccc1)C2" based on its IC50.
Reply: highest

Query: Band for "C[N+]1(C)[C@@H]2CC[C@H]1C[C@@H](OC(=O)N(Cc1ccc(C#N)cc1)c1ccccc1)C2" ?
Reply: highest

Query: Each compound maps to one class by IC50. Which class for "COc1cccc(CN(C(=O)O[C@@H]2C[C@H]3CC[C@@H](C2)[N+]3(C)C)c2ccccc2)c1" ?
Reply: highest

Query: State the class of the compound shown: "C[N+]1(C)[C@@H]2CC[C@H]1C[C@H](OC(=O)N(Cc1ccccc1)c1ccsc1)C2.[Br-]"
Reply: lowest
